Origin of measurements: the OPERA property sets (Mansouri et al. 2018)

# cutoff 1 applies to logP; >= gives 1 (yes), < gives 0 (no)

Check out these entries, answers already filled in.
{"columns": ["Structure smiles string", "Category"],
 "data": [
  ["CC(=O)Nc1cccc(Cl)c1F", "1 (yes)"],
  ["NC(=O)c1ccccc1Cl", "0 (no)"],
  ["NC(=O)c1ccccc1Br", "0 (no)"],
  ["CC(=O)Nc1cccc(Cl)c1", "1 (yes)"],
  ["CCc1ccccc1NC(C)=O", "1 (yes)"]
]}

Data request: Given COc1cccc([N+](=O)[O-])c1C , state whether its logP is at least 1.
Data returned: 1 (yes)

Data request: Given NC(=O)c1c(Cl)cccc1[N+](=O)[O-] , state whether its logP is at least 1.
Data returned: 0 (no)

----------
Experimental endpoint: logP
One number for each entry.

Here are 5 compounds together with their reported answers.
{"columns": ["Structure smiles string", "logP"],
 "data": [
  ["NC(=O)c1c(Br)cccc1Br", 1],
  ["CC(=O)Nc1cc(C(F)(F)F)c(F)cc1F", 2.34],
  ["N#Cc1ccc(C(N)=O)cc1", 0.48],
  ["COc1ccc(NC(C)=O)c([N+](=O)[O-])c1", 1.09],
  ["CC(=O)Nc1cc(Cl)cc(Cl)c1Br", 3.04]
]}

Parameters: items (list). Returns: logP for each item.
1. CC(=O)Nc1cc(C(F)(F)F)ccc1F
2. CC(=O)Nc1cc(F)cc(C(F)(F)F)c1Cl

Data returned:
2.24
2.86

----------
Please note: logP exactly at 2 is No. Only values below 2 get Yes.

{"columns": ["Structure smiles string", "Category"],
 "data": [
  ["COc1ccccc1Cl", "No"],
  ["CC(=O)Nc1cc(C(F)(F)F)cc(C(F)(F)F)c1", "No"],
  ["N#Cc1cccc(C(N)=O)c1", "Yes"],
  ["CC(=O)Nc1ccc(Br)c(Cl)c1F", "No"],
  ["COc1c(Cl)cccc1NC(C)=O", "Yes"],
  ["NC(=O)c1c(F)cccc1F", "Yes"],
  ["CC(=O)Nc1cc(C(F)(F)F)c(Cl)cc1Cl", "No"],
  ["C=CCOc1cc(NC(C)=O)c(F)cc1Cl", "No"]
]}

Data request: Confirm or reject: logP of CC(=O)Nc1cccc([N+](=O)[O-])c1 lies strictly below 2
Data returned: Yes

Data request: Confirm or reject: logP of COc1cccc(Cl)c1C(N)=O lies strictly below 2
Data returned: Yes

Data request: Confirm or reject: logP of O=[N+]([O-])c1cc(C(F)(F)F)cc([N+](=O)[O-])c1Cl lies strictly below 2
Data returned: No

Data request: Confirm or reject: logP of NC(=O)c1c(F)cccc1Br lies strictly below 2
Data returned: Yes

Data request: Confirm or reject: logP of CC(=O)Nc1ccccc1F lies strictly below 2
Data returned: Yes

Data request: Confirm or reject: logP of COc1cccc(NC(C)=O)c1C lies strictly below 2
Data returned: Yes

Data request: Confirm or reject: logP of CC(=O)Nc1ccc(C)c(C)c1 lies strictly below 2
Data returned: No

----------
What logP was measured for each of the following?

{"columns": ["Structure smiles string", "logP"],
 "data": [
  ["CC(=O)Nc1ccc(Cl)c(Cl)c1Cl", 2.88],
  ["CC(=O)Nc1cc(C(F)(F)F)cc(Cl)c1Cl", 3.27],
  ["CCc1cccc(C)c1NC(C)=O", 1.41]
]}

Parameters: items (list). Returns: logP for each item.
1. CC(=O)Nc1cccc(Cl)c1C
2. COc1cccc(NC(C)=O)c1
3. CC(C)c1ccccc1C(N)=O
4. CC(=O)Nc1ccc(Br)c(Cl)c1C

Data returned:
1. 1.82
2. 1.3
3. 1.39
4. 2.69

Parameters: items (list). Returns: logP for each item.
1. CC(=O)Nc1ccc(Cl)c(Cl)c1
2. CC(=O)Nc1ccc(Oc2ccccn2)cc1
3. CC(=O)Nc1cc(Cl)c(Cl)c(Cl)c1
4. NC(=O)c1ccccc1C(F)(F)F
5. CC(=O)Nc1ccc(C)cc1
6. CC(=O)Nc1ccc(Cl)cc1F

Data returned:
1. 3
2. 1.57
3. 3.76
4. 0.68
5. 1.7
6. 1.91

Parameters: items (list). Returns: logP for each item.
1. CC(=O)Nc1cc(C)c(O)cc1C
2. CC(=O)Nc1cc(Cl)ccc1C
3. CC(=O)Nc1cc(Cl)c(F)c(Cl)c1F
4. CC(=O)Nc1ccc(Cl)cc1[N+](=O)[O-]

Data returned:
[0.6, 1.82, 2.9, 1.78]

Parameters: items (list). Returns: logP for each item.
1. CC(=O)Nc1c(C)cccc1C
2. CC(=O)Nc1ccccc1Br

Data returned:
1: 1.07; 2: 1.34

----------
Please note: logP exactly at 2 is 0.0. Only values below 2 get 1.0.

Check out these entries, answers already filled in.
{"columns": ["Structure smiles string", "Category"],
 "data": [
  ["CC(=O)Nc1c(C)cccc1Cl", 1.0],
  ["CCc1cccc(CC)c1NC(C)=O", 1.0],
  ["CC(=O)Nc1ccc(C)cc1[N+](=O)[O-]", 1.0],
  ["CC(=O)Nc1ccc(Br)c(C)c1Cl", 0.0],
  ["CCc1ccccc1C(N)=O", 1.0],
  ["CCCCc1ccc(NC(C)=O)cc1", 0.0],
  ["CC(=O)Nc1cccc(F)c1", 1.0],
  ["NC(=O)c1c(F)cccc1Cl", 1.0],
  ["O=[N+]([O-])c1ccc(Cl)cc1[N+](=O)[O-]", 0.0],
  ["CCCCc1ccc(NC(C)=O)c(C)c1", 0.0]
]}

Data request: Confirm or reject: logP of COc1ccccc1C(=O)N(C)C lies strictly below 2
Data returned: 1.0

Data request: Confirm or reject: logP of COc1ccc(C)c(OC)c1 lies strictly below 2
Data returned: 0.0

Data request: Confirm or reject: logP of CC(=O)Nc1cccc(C)c1C lies strictly below 2
Data returned: 1.0

Data request: Confirm or reject: logP of CCc1ccccc1OC lies strictly below 2
Data returned: 0.0

Data request: Confirm or reject: logP of N#Cc1ccccc1[N+](=O)[O-] lies strictly below 2
Data returned: 1.0

Data request: Confirm or reject: logP of NC(=O)c1ccccc1F lies strictly below 2
Data returned: 1.0

----------
Experimental endpoint: logP
Numbers only.

Here are 8 compounds together with their reported answers.
{"columns": ["Structure smiles string", "logP"],
 "data": [
  ["CC(=O)Nc1c(F)cccc1F", 0.69],
  ["COc1cccc(OC)c1C(N)=O", -0.22],
  ["CC(=O)Nc1cc([N+](=O)[O-])c(Br)cc1F", 2.11],
  ["CC(=O)Nc1ccc(Cl)cc1C(F)(F)F", 1.98],
  ["COc1cccc(OC)c1C", 2.87],
  ["CC(=O)Nc1cc(Cl)cc(C(F)(F)F)c1Br", 3.26],
  ["COc1c(C)cccc1NC(C)=O", 1.28],
  ["CC(=O)Nc1c(Cl)cccc1Cl", 1.32]
]}

Now let's try a different one.
Data request: Recall and state the measured logP for Cc1cccc(Cl)c1C(N)=O .
Data returned: 0.89

----------
What logP was measured for each of the following?
Numbers only.

{"columns": ["Structure smiles string", "Experimental endpoint", "Recorded measurement"],
 "data": [
  ["CC(=O)Nc1c(C(C)C)cccc1C(C)C", "logP", 2.41],
  ["CCCc1cc(NC(C)=O)ccc1OC", "logP", 2.72],
  ["CC(=O)Nc1cc(C(F)(F)F)ccc1Cl", "logP", 2.24],
  ["CC(=O)Nc1ccc(C)cc1C", "logP", 1.46],
  ["COc1cccc(OC)c1", "logP", 2.21]
]}

Parameters: items (list). Returns: logP for each item.
1. CC(=O)Nc1cc(Br)cc(C(F)(F)F)c1Cl
2. CC(=O)Nc1cc(Cl)cc(C(F)(F)F)c1F
3. CCCCc1ccc(NC(C)=O)c([N+](=O)[O-])c1
4. CC(=O)Nc1c(F)ccc(C(F)(F)F)c1Br
5. CC(=O)Nc1cccc(Br)c1
6. COc1ccc(OC)c(Cl)c1

Data returned:
1: 3.41; 2: 3.15; 3: 3.1; 4: 2.22; 5: 2.31; 6: 2.69

Parameters: items (list). Returns: logP for each item.
1. CC(=O)Nc1ccc(Br)cc1C
2. CC(=O)Nc1cc(C(F)(F)F)c(Br)cc1F
3. COc1ccc(NC(C)=O)cc1Cl

Data returned:
1. 2.03
2. 3.17
3. 1.81

Parameters: items (list). Returns: logP for each item.
1. CC(=O)Nc1c(C)cc(Br)cc1C
2. COc1ccccc1F
3. CC(=O)Nc1cc(C)cc(C)c1
4. CC(=O)Nc1cc(C)c(C)c(C)c1
5. CCc1cccc(C(C)C)c1NC(C)=O

Data returned:
1. 2.12
2. 2.14
3. 2.17
4. 2.5
5. 2.1

Parameters: items (list). Returns: logP for each item.
1. CCCCc1ccc(NC(C)=O)c(Br)c1
2. CC(=O)Nc1cc(Cl)cc(C(F)(F)F)c1Cl
3. CC(=O)Nc1c(C)cccc1[N+](=O)[O-]
4. CC(C)(C)c1ccc(C(N)=O)cc1
5. CC(=O)Nc1ccccc1-c1ccccc1

Data returned:
[3.39, 3.27, 0.61, 2.51, 2.02]
